// IC50 lookup, one value per entry
- TEST TARGET: partially purified pig heart adenosine kinase or recombinant human adenosine kinase
- EXPERIMENT NOTES: AK inhibition
- Format: biochemical
- RUN PARAMETERS: 0.5 μM [U-14C] adenosine, pH 7.0, 37° C., 20 minutes
Counter-ions that a name gives are not always drawn.
Respond with the bare value in nM.

Please review the following examples before continuing.
COMPOUND | TEST TARGET | EXPERIMENTAL VALUE
C[C@H]1O[C@@H](n2cc(-c3ccccc3)c3c(Nc4ccc(C(=O)NN5CCCCC5)cc4)ncnc32)[C@H](O)[C@@H]1O | partially purified pig heart adenosine kinase or recombinant human adenosine kinase | 2
C[C@H]1O[C@@H](n2cc(-c3ccccc3)c3c(Nc4ccc(C(=O)O)cc4)ncnc32)[C@H](O)[C@@H]1O | partially purified pig heart adenosine kinase or recombinant human adenosine kinase | 80
C[C@H]1O[C@@H](n2cc(-c3ccccc3)c3c(Nc4ccc(OCC(=O)N5CCNCC5)cc4)ncnc32)[C@H](O)[C@@H]1O | partially purified pig heart adenosine kinase or recombinant human adenosine kinase | 0.35
C[C@H]1O[C@@H](n2cc(-c3ccccc3)c3c(Nc4ccc(CCNC(=O)c5cccnc5)cc4)ncnc32)[C@H](O)[C@@H]1O | partially purified pig heart adenosine kinase or recombinant human adenosine kinase | 1
C[C@H]1O[C@@H](n2cc(I)c3c(NCCc4ccccn4)ncnc32)[C@H](O)[C@@H]1O | partially purified pig heart adenosine kinase or recombinant human adenosine kinase | 10000

Memo: `CC(=O)Nc1ccc(Nc2ncnc3c2c(I)cn3[C@@H]2O[C@H](C)[C@H]3OC(C)(C)O[C@H]32)cc1` , reported IC50: 0.5

Value of IC50 reported for the compound `CC(=O)NS(=O)(=O)c1ccc(Nc2ncnc3c2c(-c2ccccc2)cn3[C@@H]2O[C@H](C)[C@@H](O)[C@H]2O)cc1` is 3000

IC50 measured on `C[C@H]1O[C@@H](n2cc(-c3ccccc3)c3c(Nc4ccc(C(=O)N5CCNCC5)cc4)ncnc32)[C@H](O)[C@@H]1O` = 2

Note to self: IC50 recorded for `C[C@H]1O[C@@H](n2cc(-c3ccc(CN4CCNCC4)cc3)c3c(Nc4ccc(F)cc4)ncnc32)[C@H](O)[C@@H]1O` was 9

Memo: `C[C@H]1O[C@@H](n2cc(I)c3c(NCc4cccnc4)ncnc32)[C@H](O)[C@@H]1O` , reported IC50: 120

// sample `C[C@H]1O[C@@H](n2cc(-c3ccccc3)c3c(Nc4ccc(CCS(=O)(=O)O)cc4)ncnc32)[C@H](O)[C@@H]1O` , its IC50 was 2

// IC50 value for `C[C@H]1O[C@@H](n2cc(-c3ccccc3)c3c(Nc4ccc(CCN5CCOCC5)cc4)ncnc32)[C@H](O)[C@@H]1O` : 2

Form field IC50, entry C[C@H]1O[C@@H](n2cc(-c3ccccc3)c3c(Nc4ccc(CCNC(=N)N)cc4)ncnc32)[C@H](O)[C@@H]1O [Compound 267, hydrochloride] : 1
